# Tested system: KCC2 (Homo sapiens, UniProt Q9H2X9)
# Construct: expressed in transfected cells; host or cells: HEK293 cells electroporated (Maxcyte STX) with the pcDNA3.1 KCC2 plasmid
# Sequence (Q9H2X9 1-1139): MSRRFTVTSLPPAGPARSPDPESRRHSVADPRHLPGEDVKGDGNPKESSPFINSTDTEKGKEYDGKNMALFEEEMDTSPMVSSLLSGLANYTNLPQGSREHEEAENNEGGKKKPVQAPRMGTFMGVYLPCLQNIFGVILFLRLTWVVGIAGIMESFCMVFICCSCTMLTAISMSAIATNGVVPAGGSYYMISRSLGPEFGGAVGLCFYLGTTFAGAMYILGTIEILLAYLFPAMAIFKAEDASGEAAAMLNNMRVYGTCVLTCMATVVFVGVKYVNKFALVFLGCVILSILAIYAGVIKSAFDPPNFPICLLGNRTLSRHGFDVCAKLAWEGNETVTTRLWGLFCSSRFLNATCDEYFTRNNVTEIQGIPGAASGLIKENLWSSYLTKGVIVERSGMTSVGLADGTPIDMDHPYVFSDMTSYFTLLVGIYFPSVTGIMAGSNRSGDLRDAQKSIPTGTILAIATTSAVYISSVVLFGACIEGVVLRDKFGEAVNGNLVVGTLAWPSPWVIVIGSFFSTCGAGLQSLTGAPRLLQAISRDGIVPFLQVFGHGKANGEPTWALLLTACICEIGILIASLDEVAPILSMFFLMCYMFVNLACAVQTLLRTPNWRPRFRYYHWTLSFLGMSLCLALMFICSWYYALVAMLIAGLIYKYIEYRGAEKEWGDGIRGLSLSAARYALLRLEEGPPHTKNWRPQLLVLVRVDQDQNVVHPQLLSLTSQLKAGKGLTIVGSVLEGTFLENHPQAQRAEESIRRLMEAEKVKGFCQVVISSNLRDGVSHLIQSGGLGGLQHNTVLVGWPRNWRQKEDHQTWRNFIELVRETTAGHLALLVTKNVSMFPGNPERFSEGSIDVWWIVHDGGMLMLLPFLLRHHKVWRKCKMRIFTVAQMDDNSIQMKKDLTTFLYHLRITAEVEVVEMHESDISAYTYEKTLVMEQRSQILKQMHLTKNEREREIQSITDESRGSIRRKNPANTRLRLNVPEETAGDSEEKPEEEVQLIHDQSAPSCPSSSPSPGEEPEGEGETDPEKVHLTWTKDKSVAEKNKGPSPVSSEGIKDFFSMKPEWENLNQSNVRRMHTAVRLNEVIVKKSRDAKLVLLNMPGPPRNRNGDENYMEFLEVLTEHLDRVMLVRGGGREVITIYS
# Assay info: KCC2 thallium transport FLIPR-based assay (Tl+ influx in HEK293 cells expressing KCC2)
# Format: cell-based
# Setup conditions: 90 min compound incubation at RT, thallium flux at 120 s used to determine EC50
pEC50: −log10 of the molar value.
Metric name: pEC50

• CC(C)c1ccc(Nc2nc(N3CCO[C@@H](C)C3)nc3c2CN(C(C)C)C3=O)cc1 = 5.17
• CC(C)N1Cc2c(Nc3ccc(C4CCCCC4)cc3)nc(-c3ccnc(C4CC4)c3)nc2C1=O = 6.20
• Cc1cc(Nc2nc(N3CCOCC3)nc3c2CN(C(C)C)C3=O)ccc1-c1ccccc1 = 5.45
• COc1cnc2nc(N3CCO[C@H](C)C3)nc(Nc3ccc(C4CCCCC4)cc3)c2c1 = 5.73
• C[C@@H]1CN(c2nc(Nc3ccc(C4CCC4)cc3)c3c(n2)C(=O)N(CCCN(C)C)C3)CCO1 = 5.43
• CC(C)N1Cc2c(Nc3ccc(C4CCC4)cc3)nc(N3CCOCC3)nc2C1=O = 5.24
• CC(C)N1Cc2c(Nc3ccc(-c4ccc(Cl)cc4)cc3)nc(N3CCOCC3)nc2C1=O = 5.45
• C#CCCCCCOc1ccc(-c2ccc(Nc3nc(N4CCOC(C5CC5)C4)nc4c3CN(C(C)C)C4=O)cc2)cc1 (centres unmarked) = 6.84

meta.source: patent US12617795B2
